Biological target: p38 MAPKα isoform (MAPK14) (Homo sapiens (Human))
Sequence (Q16539 whole entry, canonical isoform): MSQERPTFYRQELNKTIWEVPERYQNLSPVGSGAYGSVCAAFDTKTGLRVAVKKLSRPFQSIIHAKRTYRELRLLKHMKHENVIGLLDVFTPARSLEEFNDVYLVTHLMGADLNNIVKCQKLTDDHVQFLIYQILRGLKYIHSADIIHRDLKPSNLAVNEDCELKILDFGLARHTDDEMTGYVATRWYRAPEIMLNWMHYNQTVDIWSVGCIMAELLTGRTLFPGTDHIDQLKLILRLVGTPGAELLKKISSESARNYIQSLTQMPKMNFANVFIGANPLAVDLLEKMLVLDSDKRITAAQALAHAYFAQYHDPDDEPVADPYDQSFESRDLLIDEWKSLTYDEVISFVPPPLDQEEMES
Test: p38 MAPKα enzyme inhibition (FRET, Z-LYTE, Method 2)
EXPERIMENTAL_ENDPOINT: IC50 (nM)

COCCOCCOCCOc1cc(Nc2nccc(Oc3ccc(NC(=O)Nc4cc(C(C)(C)C)cc(CC(N)=O)c4OC)c4ccccc34)n2)cc(OC)c1 : 52

1 = COc1c(NC(=O)Nc2ccc(Oc3ccnc(N(C)C)n3)c3ccccc23)cc(C(C)(C)C)cc1P(C)(C)=O
2 = COc1cc(Nc2cc(Oc3ccc(NC(=O)Nc4cc(C(C)(C)C)cc(CC(N)=O)c4OC)c4ccccc34)ccn2)cc(C(=O)NCCN2CC[S+]([O-])CC2)c1
Which one would you say has the larger IC50 value: 1 , or 2 ? Let me know the label of the one you choose.
1
